Source of measurements: patent US12297206B2

# assayProcedure: physchem
# conditionDescription: fed-state simulated intestinal fluid (FeSSIF), 37 °C, fessif, thermodynamic from solid
parameterMeasured: solubility at 2 h (µg/mL)
I only need the number, in µg/mL, no unit after it.

Qu. Return solubility at 2 h for the following compound: "Cc1nc2cnc3ccoc3c2n1[C@H]1CC[C@H](CC#N)OC1"
Ans. 2200

* * *

# assayProcedure: physchem
# conditionDescription: water, 37 °C, thermodynamic from solid
parameterMeasured: solubility at 24 h (µg/mL)
I only need the number, in µg/mL, no unit after it.

Qu. Return solubility at 24 h for the following compound: "Cc1nc2cnc3ccoc3c2n1[C@H]1CC[C@H](CC#N)OC1"
Ans. 1430

* * *

# measuredTarget: TYK2 (Homo sapiens, UniProt P29597)
# Sequence (P29597 whole entry): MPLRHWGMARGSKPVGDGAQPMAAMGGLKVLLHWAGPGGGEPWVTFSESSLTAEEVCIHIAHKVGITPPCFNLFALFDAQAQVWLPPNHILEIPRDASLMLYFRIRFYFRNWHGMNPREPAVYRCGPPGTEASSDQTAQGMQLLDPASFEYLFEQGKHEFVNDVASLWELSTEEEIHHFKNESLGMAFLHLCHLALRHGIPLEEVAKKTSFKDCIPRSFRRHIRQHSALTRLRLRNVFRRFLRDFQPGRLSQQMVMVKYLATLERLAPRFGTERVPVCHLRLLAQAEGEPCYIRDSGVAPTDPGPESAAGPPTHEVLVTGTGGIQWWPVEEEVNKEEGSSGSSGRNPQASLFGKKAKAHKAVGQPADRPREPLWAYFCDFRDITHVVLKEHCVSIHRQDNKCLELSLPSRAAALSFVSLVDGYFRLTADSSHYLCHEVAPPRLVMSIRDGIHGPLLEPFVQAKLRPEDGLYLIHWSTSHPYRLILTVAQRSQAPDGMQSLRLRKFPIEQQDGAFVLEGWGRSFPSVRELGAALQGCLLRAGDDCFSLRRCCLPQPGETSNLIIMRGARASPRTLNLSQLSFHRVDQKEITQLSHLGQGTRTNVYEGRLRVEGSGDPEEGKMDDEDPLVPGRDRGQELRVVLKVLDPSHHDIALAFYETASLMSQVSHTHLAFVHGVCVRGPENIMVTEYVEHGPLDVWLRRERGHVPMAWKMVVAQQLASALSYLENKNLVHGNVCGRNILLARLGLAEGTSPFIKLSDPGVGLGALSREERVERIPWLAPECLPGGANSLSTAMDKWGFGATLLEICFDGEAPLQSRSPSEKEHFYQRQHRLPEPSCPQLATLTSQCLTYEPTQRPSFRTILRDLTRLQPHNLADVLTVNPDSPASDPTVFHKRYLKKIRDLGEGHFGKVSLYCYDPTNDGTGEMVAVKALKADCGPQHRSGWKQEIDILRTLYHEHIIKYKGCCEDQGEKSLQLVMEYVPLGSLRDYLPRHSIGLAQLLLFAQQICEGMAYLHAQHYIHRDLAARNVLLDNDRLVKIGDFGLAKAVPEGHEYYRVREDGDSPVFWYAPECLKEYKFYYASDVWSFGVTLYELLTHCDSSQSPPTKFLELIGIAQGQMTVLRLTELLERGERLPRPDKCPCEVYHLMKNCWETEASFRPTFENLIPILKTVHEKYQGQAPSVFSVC
parameterMeasured: IC50

Qu. Fill in IC50 for "Cc1nc2cnc3ccoc3c2n1[C@H]1CC[C@H](CC#N)OC1" tested with TYK2 (Homo sapiens, UniProt P29597).
Ans. < 10 nM

* * *

# assayProcedure: physchem
# conditionDescription: fasted-state simulated intestinal fluid (FaSSIF), 37 °C, fassif, thermodynamic from solid
parameterMeasured: solubility at 30 min (µg/mL)
I only need the number, in µg/mL, no unit after it.

Qu. Return solubility at 30 min for the following compound: "Cc1nc2cnc3ccoc3c2n1[C@H]1CC[C@H](CC#N)OC1"
Ans. 2590

* * *

# assayProcedure: Dynamic vapour sorption (DVS) moisture absorption
# Type: physicochemical
# conditionDescription: after DVS test
parameterMeasured: Crystal form after moisture absorption (XRPD before and after the DVS test)

| molecule | reported |
| --- | --- |
| Cc1nc2cnc3ccoc3c2n1C1CCC(CC#N)OC1.O=P(O)(O)O (centres unmarked) | doesn't change |
| Cc1nc2cnc3ccoc3c2n1C1CCC(CC#N)OC1.Cc1nc2cnc3ccoc3c2n1C1CCC(CC#N)OC1.O=C(O)C(O)C(O)C(=O)O (centres unmarked) | doesn't change |
| Cc1nc2cnc3ccoc3c2n1C1CCC(CC#N)OC1.O=S(=O)(O)c1ccccc1 (centres unmarked) | doesn't change |

* * *

# assayProcedure: physchem
# conditionDescription: simulated gastric fluid (SGF), 37 °C, simulated gastric fluid, thermodynamic from solid
parameterMeasured: solubility at 4 h (mg/mL)
I only need the number, in mg/mL, no unit after it.

Qu. Return solubility at 4 h for the following compound: "Cc1nc2cnc3ccoc3c2n1[C@H]1CC[C@H](CC#N)OC1"
Ans. 15.2

* * *

# assayProcedure: physchem
# conditionDescription: fed-state simulated intestinal fluid (FeSSIF), 37 °C, fessif, thermodynamic from solid
parameterMeasured: solubility at 30 min (mg/mL)
I only need the number, in mg/mL, no unit after it.

Qu. Return solubility at 30 min for the following compound: "Cc1nc2cnc3ccoc3c2n1[C@H]1CC[C@H](CC#N)OC1"
Ans. 2.91

* * *

# assayProcedure: physchem
# conditionDescription: fed-state simulated intestinal fluid (FeSSIF), 37 °C, fessif, thermodynamic from solid
parameterMeasured: solubility at 4 h (µg/mL)
I only need the number, in µg/mL, no unit after it.

Qu. Return solubility at 4 h for the following compound: "Cc1nc2cnc3ccoc3c2n1[C@H]1CC[C@H](CC#N)OC1"
Ans. 2610

* * *

# assayProcedure: physchem
# conditionDescription: fasted-state simulated intestinal fluid (FaSSIF), 37 °C, fassif, thermodynamic from solid
parameterMeasured: solubility at 4 h (µg/mL)
I only need the number, in µg/mL, no unit after it.

Qu. Return solubility at 4 h for the following molecule: "Cc1nc2cnc3ccoc3c2n1[C@H]1CC[C@H](CC#N)OC1"
Ans. 1810

* * *

# assayProcedure: physchem
# conditionDescription: simulated gastric fluid (SGF), 37 °C, simulated gastric fluid, thermodynamic from solid
parameterMeasured: solubility at 24 h (mg/mL)
I only need the number, in mg/mL, no unit after it.

Qu. Return solubility at 24 h for the following compound: "Cc1nc2cnc3ccoc3c2n1[C@H]1CC[C@H](CC#N)OC1"
Ans. 16.4

* * *

# assayProcedure: physchem
# conditionDescription: simulated gastric fluid (SGF), 37 °C, simulated gastric fluid, thermodynamic from solid
parameterMeasured: solubility at 2 h (mg/mL)
I only need the number, in mg/mL, no unit after it.

Qu. Return solubility at 2 h for the following molecule: "Cc1nc2cnc3ccoc3c2n1[C@H]1CC[C@H](CC#N)OC1"
Ans. 17

* * *

# assayProcedure: physchem
# conditionDescription: water, 37 °C, thermodynamic from solid
parameterMeasured: solubility at 2 h (µg/mL)
I only need the number, in µg/mL, no unit after it.

Qu. Return solubility at 2 h for the following compound: "Cc1nc2cnc3ccoc3c2n1[C@H]1CC[C@H](CC#N)OC1"
Ans. 1730

* * *

# assayProcedure: physchem
# conditionDescription: fasted-state simulated intestinal fluid (FaSSIF), 37 °C, fassif, thermodynamic from solid
parameterMeasured: solubility at 24 h (µg/mL)
I only need the number, in µg/mL, no unit after it.

Qu. Return solubility at 24 h for the following compound: "Cc1nc2cnc3ccoc3c2n1[C@H]1CC[C@H](CC#N)OC1"
Ans. 1560

* * *

# assayProcedure: physchem
# conditionDescription: fasted-state simulated intestinal fluid (FaSSIF), 37 °C, fassif, thermodynamic from solid
parameterMeasured: solubility at 2 h
Provide a numeric answer, followed by its unit.

Qu. Return solubility at 2 h for the following compound: "Cc1nc2cnc3ccoc3c2n1[C@H]1CC[C@H](CC#N)OC1"
Ans. 1860 µg/mL

* * *

Items are presented alongside their recorded Weight gain by moisture absorption (DVS).
# assayProcedure: Dynamic vapour sorption (DVS) moisture absorption
# Type: physicochemical
# conditionDescription: from 0% RH to 95% RH, 25° C.
I only need the number, in %, no unit after it.

Worked cases, Weight gain by moisture absorption (DVS) given:
| compound | unitInfo | Weight gain by moisture absorption (DVS) |
| --- | --- | --- |
| Br.Cc1nc2cnc3ccoc3c2n1C1CCC(CC#N)OC1 (centres unmarked) | % | 11.84 |
| Cc1nc2cnc3ccoc3c2n1C1CCC(CC#N)OC1.Cc1nc2cnc3ccoc3c2n1C1CCC(CC#N)OC1.O=C(O)C(O)C(O)C(=O)O (centres unmarked) | % | 6.85 |

Qu. Return Weight gain by moisture absorption (DVS) for the following compound: Cc1nc2cnc3ccoc3c2n1C1CCC(CC#N)OC1.O=S(=O)(O)c1ccccc1 (centres unmarked)
Ans. 4.6

Qu. Return Weight gain by moisture absorption (DVS) for the following compound: "Cc1nc2cnc3ccoc3c2n1[C@H]1CC[C@H](CC#N)OC1"
Ans. 13.86

Qu. Return Weight gain by moisture absorption (DVS) for the following compound: Cc1nc2cnc3ccoc3c2n1C1CCC(CC#N)OC1.O=P(O)(O)O (centres unmarked)
Ans. 6.5
